# Tested on: VDR:RXRa (NR concentration 270 nM, RXRa partner concentration 90 nM)
# Protocol Text: PBM binding z-score (relative to random genomic background probes); higher = stronger binding; sequences stand for … in GC…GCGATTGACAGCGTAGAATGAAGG
Here, each record is paired with measured PBM binding z-score data.
# print the numeric value only

ATCGAAAGGTCGTTAGGTGAGTATACAGAAAGGC: 3.58
GCAGACACGTGAAACGCAGGTAACTCAGGGTGGC: -0.854
ATACAAAGGTGATCGTGAGGTCGTTGATACTAAC: 4.59
CGAACTAGGTCAAGGACAGAGAATCTCCGCACGC: 1.02
CCTGCTAGGCCAATGGTCAGCTAAAGCAGCTCGC: -0.792
CAAACTAGGTCACCGGAAGGTCGAAGTCCGCATG: 4.47
CCTACTCGGCCATTCAGAGGTCATTGATCATATG: 4.06
CCGACTGGGGCAGAAAGGTTACCAGACCATCCGG: 0.696
TCATATAGGTAAATGCTAGGTGAGAGTCCGATCT: 0.644
CCTACTGGGCGATCAGGTCATTGATATCAACGTT: 1.67

Entry CTACCAAGGTGCACAAGGTCGTTGATTACTATTC : reported PBM binding z-score = ?
3.17

Then what about the sequence CGAACTAGGTCAGAACAGGACAGTGAAGGATGAT ?
0.634

Another sequence: TCTAGCAGGCCAGAGGGACACTCAAGAGGTACGG
-0.463

What about CCGACTGGGGCAGAAAGGTTACGATACCATCCGG ?
1.2
